system: Plasmodium falciparum strain 3D7; test: Antimalarial activity, whole-cell SYBR Green I assay; type: cell-based; settings: 3D7, 72 h, read-out: Antimalarial activity (IC50) Mean
valueType: pIC50
Units for pIC50: none; it is -log10 of a concentration expressed in mol/L.

What the record says about CCN(CC)CCCC(C)Nc1ccnc2cc(Cl)ccc12 (stereo not shown) [CQ, chloroquine, reference compound] : pIC50 is 7.71
